Target desc: Neuropeptide Y receptor type 1 (Homo sapiens) (UniProt P25929)
Sequence (whole entry): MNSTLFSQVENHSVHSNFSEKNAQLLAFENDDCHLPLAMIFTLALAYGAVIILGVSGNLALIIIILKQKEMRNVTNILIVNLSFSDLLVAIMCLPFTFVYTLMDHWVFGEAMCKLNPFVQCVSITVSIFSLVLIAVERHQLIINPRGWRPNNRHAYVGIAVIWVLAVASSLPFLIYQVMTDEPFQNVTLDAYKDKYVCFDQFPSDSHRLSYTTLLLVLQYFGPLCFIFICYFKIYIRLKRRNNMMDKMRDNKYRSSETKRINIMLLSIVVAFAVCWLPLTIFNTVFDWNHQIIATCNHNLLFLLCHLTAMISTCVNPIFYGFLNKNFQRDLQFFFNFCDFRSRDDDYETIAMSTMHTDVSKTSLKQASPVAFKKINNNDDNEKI
Assay protocol: Tested for inhibition of NPY-induced increase in [Ca2+] at 100 uM concentration in human erythroleukemia cells
Format: functional
Measured endpoint: inhibition (%)

N=C(NCCCc1c[nH]cn1)NCCC(c1ccc(F)cc1)c1ccccn1 (stereo not drawn)    75

P = N=C(CCC(c1ccccc1)c1ccccn1)NCCCc1c[nH]cn1 (stereo not drawn)
Q = N=C(NCCCc1c[nH]cn1)NCCCC(c1ccccc1)c1ccccn1 (stereo not drawn)
[in] Compare P and Q by numeric inhibition and name the larger one. Label of pick, please.
[out] Q
(Q: 84%, P: 45%)

====

Target desc: Histamine H1 receptor (Cavia porcellus)
Assay protocol: Antagonistic activity (H1 antagonism) evaluated by the inhibition of histamine-stimulated contraction in guinea pig ileum at a concentration of 1E-7 - 1E-4 M
Assay type: functional, tissue-based
Measured endpoint: pKB

N=C(NCCCc1c[nH]cn1)NCCC(c1ccccc1)c1ccccn1 (stereo not given)    7.01
N=C(CCC(c1ccccc1)c1ccccn1)NCCCc1c[nH]cn1 (stereo not given)    6.45
CCOC(=O)N/C(=N\CCC(c1ccc(F)cc1)c1ccccn1)NCCCc1c[nH]cn1 (stereo not given)    5.3
c1ccc(C(CCC/N=C(/NCCCc2c[nH]cn2)NC2CCCCC2)c2ccccn2)cc1 (stereo not given)    5.56
CN/C(=N\CCC(c1ccc(F)cc1)c1ccccn1)NCCCc1c[nH]cn1 (stereo not given)    5.08

====

Target desc: UniProt:P25929
Assay protocol: Tested for inhibition of NPY-induced increase in [Ca2+] at 10 uM concentration in human erythroleukemia cells
Type: functional
Measured endpoint: inhibition (%)

Use these answered entries as a reference point.
N=C(NCCCc1c[nH]cn1)NCCCC(c1ccc(Cl)c(Cl)c1)c1ccccn1 (centres undefined)    31
N=C(NCCCc1c[nH]cn1)NCCC(c1ccc(Cl)c(Cl)c1)c1ccccn1 (centres undefined)    81

1 = N=C(NCCCc1c[nH]cn1)NCCCC(c1ccccc1)c1ccccn1 (centres undefined)
2 = N=C(NCCCc1c[nH]cn1)NCCC(c1ccc(Br)cc1)c1ccccn1 (centres undefined)
[in] For 1 and 2 , which recorded inhibition is lower? Which one? Tell me its label.
[out] 1

A = c1ccc(C(CCC/N=C(/NCCCc2c[nH]cn2)NC2CCCCC2)c2ccccn2)cc1 (centres undefined)
B = N=C(NCCCc1c[nH]cn1)NCCC(c1ccc(F)cc1)c1ccccn1 (centres undefined)
[in] Just tell me: smaller inhibition value, A or B ? // caller expects the label of the chosen entry
[out] A

P = Brc1ccc(C(CC/N=C(/NCCCc2c[nH]cn2)NC2CCCCC2)c2ccccn2)cc1 (centres undefined)
Q = NC(=O)N/C(=N\CCC(c1ccc(F)cc1)c1ccccn1)NCCCc1c[nH]cn1 (centres undefined)
[in] Returns the identifier with the smallest measured inhibition among P and Q . Write down the label of the entry you select.
[out] Q
(Q: 2%, P: 36%)

1 = Cc1ccc(CC(CC/N=C(\N)NCCCc2c[nH]cn2)c2ccccn2)cc1 (centres undefined)
2 = CCOC(=O)N/C(=N\CCC(c1ccc(F)cc1)c1ccccn1)NCCCc1c[nH]cn1 (centres undefined)
3 = N=C(CCCCc1c[nH]cn1)NCCC(c1ccc(F)cc1)c1ccccn1 (centres undefined)
[in] Put these in order: smallest inhibition first, largest last. Respond with the label ranking, as requested.
[out] 2, 3, 1
(2: 2%, 3: 5%, 1: 23%)
